Tested on: P388 leukemia ip, CD2F1 mice, survival T/C
Assay: NCI In Vivo Anticancer Drug Screen. Data for tumor model P388 Leukemia (intraperitoneal) in CD2F1 (CDF1) mice
Details: endpoint: median survival time; dose: 120.0 mg/kg/injection; schedule: Q01DX005 (ip); vehicle: saline with Tween-80; higher = longer survival
Toxic doses and inconclusive results are not listed.
observed.property: T/C

input: # query: T/C of entry O=C1NC2Cc3ccccc3C(C2)O1 (stereo unspecified)
output: 100 % of control

input: Item under review: CC(=O)OC(CO)C(OC(C)=O)C(CNc1nc(N)[nH]c(=O)c1[N+](=O)[O-])OC(C)=O (stereo unspecified) . Reported T/C?
output: 92 % of control

input: Entry under review: N#CC(C(=O)C(=O)C(C#N)c1nc2ccccc2s1)c1nc2ccccc2s1 (stereo unspecified) . Reported T/C?
output: 101 % of control

input: Any idea what T/C was measured for CC(N)(CCSCP(=O)(O)O)C(=O)O (stereo unspecified) ?
output: 91 % of control

input: # lookup: T/C of `c1ccc2c(c1)[nH]c1c(N3CCOCC3)nnc(N3CCOCC3)c12`
output: 96 % of control

input: I am curious: what T/C value has been reported for `O=C1c2ccccc2C(=O)N1CCNCCN1C(=O)c2ccccc2C1=O` ?
output: 93 % of control

input: Using the record for `Cc1ccc(S(=O)(=O)NC(=O)NC2=NC(C)(C)N(c3ccc(Cl)c(Cl)c3)C(N)=N2)cc1` , report its T/C.
output: 108 % of control

input: Entry `O=C(CSc1nc2ccccc2[nH]1)NCCO` has what T/C?
output: 97 % of control

input: Fill in the blank: the reported T/C of CCOC(=O)C(c1ccccc1)c1cccc(C(C(=O)OCC)c2ccccc2)n1 (stereo unspecified) is ____.
output: 90 % of control

input: // query T/C value for entry `CCNC(=O)NS(=O)(=O)c1ccc(Sc2ccc(Cl)cc2)nc1`
output: 105 % of control

input: # lookup: T/C of `COc1ccc(-c2nc(N)nc(-c3nc(N)nc(-c4ccc(OC)cc4)c3-c3ccc(OC)cc3)c2-c2ccc(OC)cc2)cc1`
output: 96 % of control

====

Kindly state T/C for each of the entries shown.
Test system: P388 leukemia ip, CD2F1 mice, survival T/C
Assay: NCI In Vivo Anticancer Drug Screen. Data for tumor model P388 Leukemia (intraperitoneal) in CD2F1 (CDF1) mice
Settings: endpoint: median survival time; dose: 100.0 mg/kg/injection; schedule: Q04DX002 (ip); vehicle: saline; higher = longer survival
Inconclusive results and toxic doses are left out.

input: # query: T/C of entry `N#CCNCC#N`
output: 102 % of control

input: # T/C lookup, item CC1CC2(OC2C)C(=O)OC2CCN(C)C/C=C(/COC(=O)C1(C)O)C2=O (centres undefined)
output: 101 % of control

input: Fill in: T/C of `O=C1C(=Cc2cc(Cl)c(O)c(Cl)c2)C(=O)c2ccccc21` is ___
output: 97 % of control

input: Reported T/C for `CCCCCCCCCCCCCCCCCC(=O)OCCN(C=O)C[n+]1ccccc1` : what is it?
output: 93 % of control

====

Kindly state T/C for each of the entries shown.
Test system: P388 leukemia ip, CD2F1 mice, survival T/C
Test: NCI In Vivo Anticancer Drug Screen. Data for tumor model P388 Leukemia (intraperitoneal) in CD2F1 (CDF1) mice
Conditions: endpoint: median survival time; dose: 100.0 mg/kg/injection; schedule: Q04DX003 (ip); vehicle: saline; higher = longer survival
Inconclusive results and toxic doses are left out.

input: Item: NC(COc1ccccc1)Cc1ccccc1 (configuration not stated) Test system: P388 leukemia ip, CD2F1 mice, survival T/C Read-out: T/C Value: ?
output: 99 % of control

input: What reported T/C corresponds to `COC(=O)C(C(=O)OC)=S1C=CC=C1` on P388 leukemia ip, CD2F1 mice, survival T/C?
output: 106 % of control

input: Can you look up T/C on P388 leukemia ip, CD2F1 mice, survival T/C for CC(=O)Oc1ccccc1C(=O)OC1CCN(C(C)C)C1 (configuration not stated) ?
output: 100 % of control

input: What T/C appears in the records for this molecule with P388 leukemia ip, CD2F1 mice, survival T/C? `NC(N)=NC(N)=Nc1ccc(Cl)c(Cl)c1`
output: 109 % of control

input: # get_value(readout= T/C, system= P388 leukemia ip, CD2F1 mice, survival T/C) for `NC(=O)c1ccc2nccn2c1`
output: 115 % of control

input: API: value(readout=T/C, system=P388 leukemia ip, CD2F1 mice, survival T/C) for record `COC(=O)C(C)(OC)OC`
output: 100 % of control

input: For the record `[CH3][Ge]([c]1ccccc1)[c]1cccc2ccccc12.[CH3][Sn]([CH3])[c]1ccccc1` , what value of T/C is listed for P388 leukemia ip, CD2F1 mice, survival T/C?
output: 100 % of control

====

Tested on: P388 leukemia ip, CD2F1 mice, survival T/C
Experiment: NCI In Vivo Anticancer Drug Screen. Data for tumor model P388 Leukemia (intraperitoneal) in CD2F1 (CDF1) mice
Conditions: endpoint: median survival time; dose: 50.0 mg/kg/injection; schedule: Q01DX009 (ip); vehicle: saline; higher = longer survival
Toxic doses and inconclusive results are not listed.
I'd appreciate it if you could supply T/C values for the items below.

input: Suppose we examine the molecule `CCOC(=O)c1c[nH]c2cc3ccccc3cc2c1=O` ; what T/C value has been reported?
output: 91 % of control

input: State the recorded T/C for this entry: `S=P(N1CCCCCC1)(N1CC1)N1CC1`
output: 95 % of control

input: // query T/C value for entry `CCCCCCC(=O)/C=C/c1ccc(OC(=O)c2ccccc2)cc1`
output: 97 % of control

input: Fill in: T/C of `N#C/C(=C\c1c2ccccc2c(Cl)c2ccccc12)C(N)=S` is ___
output: 92 % of control

input: Given `N#CCCS(=O)(=O)c1ccc(Cl)cc1` , state its recorded T/C.
output: 99 % of control

input: Please report the recorded T/C for `Clc1ccccc1OCc1cnc[nH]1` .
output: 111 % of control

====

Would you kindly list T/C for each of these molecules?
Test system: P388 leukemia ip, CD2F1 mice, survival T/C
Assay: NCI In Vivo Anticancer Drug Screen. Data for tumor model P388 Leukemia (intraperitoneal) in CD2F1 (CDF1) mice
Details: endpoint: median survival time; dose: 100.0 mg/kg/injection; schedule: Q01DX005 (ip); vehicle: saline with Tween-80; higher = longer survival
Toxic doses and inconclusive results are not listed. Square brackets hold non-standard residues; d marks the D form. Peptide text beside a SMILES is read from it. ξ: configuration not given here. ξNle = CCCCC(N)C(=O)O

input: GET /values?readout=T/C&item= `Cc1ccc(CCNC(=O)c2c3nc4c(C(=O)NCCc5ccc(C)cc5)cccc4oc-3cc(=O)c2N)cc1`
output: 87 % of control

input: Report T/C for `Oc1cc(O)c2c(c1)Oc1cc(O)cc(O)c1C2` please.
output: 109 % of control

input: Name the reported T/C value associated with the molecule `Cc1ccc(C[n+]2cc3ccccc3cc2/C=N\O)cc1`
output: 109 % of control

input: Tell me the measured T/C of C=CC(C)(C)c1cc2cc3c(cc2oc1=O)OC1(C)CCC(C(C)(C)O)OC1C3 (stereo unspecified) , please.
output: 89 % of control

input: Give the measured T/C of `S=C(NNc1nnc(-c2ccccc2)c(-c2ccccc2)n1)NC1CCCCC1` .
output: 88 % of control

input: Would you mind telling me what T/C value was observed for `Cc1ccc(C(=O)NC2c3ccccc3Oc3ccccc32)cc1` ?
output: 86 % of control

input: Consider the molecule OCC(O)C1OC(c2ccccc2)OC(CO)C1O (stereo unspecified) and give its measured T/C.
output: 109 % of control

input: // returns reported T/C for input CCCCC(NC(=O)CNC(=O)CN)C(=O)O (stereo not drawn) (H-Gly-Gly-[ξNle]-OH)
output: 94 % of control

input: # T/C lookup, item Cc1ccc(S(=O)(=O)OC2COC(OCc3ccccc3)C(OS(=O)(=O)c3ccc(C)cc3)C2O)cc1 (stereo unspecified)
output: 86 % of control

input: Entry `Cc1ccc2ccccc2[n+]1CC(=O)c1ccc([N+](=O)[O-])cc1` : reported T/C = ?
output: 102 % of control

input: Quick check: T/C of O=C1NCCCCCC1S(=O)c1ccccc1 (stereo unspecified) ?
output: 96 % of control

====

Tested on: P388 leukemia ip, CD2F1 mice, survival T/C
Experiment: NCI In Vivo Anticancer Drug Screen. Data for tumor model P388 Leukemia (intraperitoneal) in CD2F1 (CDF1) mice
Settings: endpoint: median survival time; dose: 400.0 mg/kg/injection; schedule: Q01DX009 (ip); vehicle: saline; higher = longer survival
Inconclusive results and toxic doses are left out.
observed.property: T/C

input: Item under review: `O=C(O)C/[N+]([O-])=N\O` . Reported T/C?
output: 94 % of control

input: Requested field: T/C. Item: CCCC1OC(C)(Cc2ccccc2)OCC1CC (stereo unspecified)
output: 109 % of control

input: What value of T/C has been recorded for this entry: `CN(C)P(N)(N)=O`
output: 100 % of control

input: Record request: T/C value, item Oc1cc2c(cc1O)CN1CCc3cc(O)c(O)cc3C1C2 (stereo unspecified)
output: 101 % of control

input: Need T/C, item `CC(=O)Oc1ccc[nH]c1=S`
output: 96 % of control

input: Name the reported T/C value associated with the compound CC(=O)NCSCC(N)C(=O)O (stereo unspecified)
output: 90 % of control

Hello, the source for this data is PubChem BioAssay AID330, in case you need it.
